These measurements were taken from PubChem BioAssay AID256.

# System: CD2F1 mice, L1210 leukemia ip, survival T/C
# protocolSummary: NCI In Vivo Anticancer Drug Screen. Data for tumor model L1210 Leukemia (intraperitoneal) in CD2F1 (CDF1) mice
# conditionContext: endpoint: mean survival time; dose: 50.0 mg/kg/injection; schedule: Q04DX003 (ip); vehicle: saline with Tween-80; higher = longer survival
Inconclusive results and toxic doses are left out.
Below is a list of entries, each paired with its recorded T/C value.

T/C lookup needed for CCCCCCCCCCCCCCCc1ccc(C(=O)C[n+]2ccccc2)cc1 , thanks.
111 % of control

How about this compound: C=C(C)C(=O)OCC(O)C[N+](C)(C)C (stereo not given)
96 % of control

How about this compound: S=C(S)OCc1ccccc1.[Pt]
102 % of control

How about this compound: CCCCCCCCCc1ccc(OCCOCCOCCOCCOCCOCCOCCOCCOCCOC(C)N2CCCC2=O)cc1 (stereo not given)
108 % of control

How about this compound: O=C1C=C(N2CCOCC2)C(=O)c2nccnc21
95 % of control

How about this compound: N#CC(c1ccccn1)N1CCOCC1 (stereo not given)
109 % of control

How about this compound: Cc1cccc(CC(F)F)c1
109 % of control

###

# System: CD2F1 mice, L1210 leukemia ip, survival T/C
# protocolSummary: NCI In Vivo Anticancer Drug Screen. Data for tumor model L1210 Leukemia (intraperitoneal) in CD2F1 (CDF1) mice
# conditionContext: endpoint: mean survival time; dose: 25.0 mg/kg/injection; schedule: Q01DX009 (ip); vehicle: saline with Tween-80
Inconclusive results and toxic doses are left out. How the source made its calls: active means survival T/C of 150% or more; inactive means T/C below 125% in these data.
Thanks in advance; please answer with one of these: active, inactive

[[record]]
compound = "O=C(NNc1ccccc1)C(F)(F)F"
classname = "inactive"


Hey, what did the test say about O=C1C=C(NC2CCCCCC2)C(=O)c2nccnc21 ?
inactive

How about this compound: O=C(CNC(=O)Nc1cccc(C(F)(F)F)c1)N/N=C/c1c(O)ccc2ccccc12
inactive

###

# Test system: CD2F1 mice, L1210 leukemia ip, survival T/C
# protocolSummary: NCI In Vivo Anticancer Drug Screen. Data for tumor model L1210 Leukemia (intraperitoneal) in CD2F1 (CDF1) mice
# conditionContext: endpoint: mean survival time; dose: 25.0 mg/kg/injection; schedule: Q04DX003 (ip); vehicle: saline with Tween-80; higher = longer survival
Toxic doses and inconclusive results are not listed.
Below is a list of entries, each paired with its recorded T/C value.

[[record]]
molecularstring = "CCCCCCCCCCCCCC[n+]1ccc(C(N)=O)cc1"
recordedresult = "107 % of control"

[[record]]
molecularstring = "C[N+](C)(C)C1(Cc2ccc(Br)cc2)c2ccccc2-c2ccccc21"
recordedresult = "87 % of control"

[[record]]
molecularstring = "CCCCN(CCCC)C1=C(Cl)C(=O)c2ccccc2C1=O"
recordedresult = "98 % of control"


Shifting focus to the compound that follows.
T/C lookup needed for Cc1ccc(-n2c(=S)[nH]c3ccc(C)cc3c2=O)cc1 , thanks.
92 % of control

###

# Test system: CD2F1 mice, L1210 leukemia ip, survival T/C
# protocolSummary: NCI In Vivo Anticancer Drug Screen. Data for tumor model L1210 Leukemia (intraperitoneal) in CD2F1 (CDF1) mice
# conditionContext: endpoint: mean survival time; dose: 400.0 mg/kg/injection; schedule: Q01DX001 (ip); vehicle: saline with Tween-80; higher = longer survival
Inconclusive results and toxic doses are left out.
valueKind: T/C

Look over these answered cases.
[[record]]
compound = "Cc1ccc(-c2csc(/N=C/c3ccccc3O)n2)cc1"
valuekind = "T/C"
recordedresult = "86 % of control"

[[record]]
compound = "CCOc1ccc(N=Cc2ccccc2O)cc1"
valuekind = "T/C"
recordedresult = "87 % of control"

[[record]]
compound = "CC(=O)Nc1c(F)c(F)c(F)c(F)c1F"
valuekind = "T/C"
recordedresult = "94 % of control"


T/C lookup needed for CC1(C)OC2COC(c3cc(C(N)=O)n[nH]3)C2O1 (stereo not given) , thanks.
105 % of control

How about this compound: O=C(O)Cc1cc(=O)oc2ccccc12
96 % of control

How about this compound: CCCCCCCCCCCCCCCCCCCCCC(=O)CCCCCCCCCCCCCCCCCCCCC
101 % of control

###

Below is a list of entries, each paired with its recorded T/C value.
# System: CD2F1 mice, L1210 leukemia ip, survival T/C
# protocolSummary: NCI In Vivo Anticancer Drug Screen. Data for tumor model L1210 Leukemia (intraperitoneal) in CD2F1 (CDF1) mice
# conditionContext: endpoint: mean survival time; dose: 100.0 mg/kg/injection; schedule: Q04DX002 (ip); vehicle: saline with Tween-80; higher = longer survival
Inconclusive results and toxic doses are left out.

Look over these answered cases.
[[record]]
molecularstring = "CCOP(=S)(OCC)C(C)(C)C"
recordedresult = "107 % of control"

[[record]]
molecularstring = "CCN(CC)Cc1cc(Nc2cc(C)nc(/N=C(\\N)Nc3cc(Cl)cc(Cl)c3)n2)ccc1O"
recordedresult = "94 % of control"


T/C lookup needed for COc1ccc(NC(=O)Oc2c(C)cccc2C)cc1 , thanks.
97 % of control

How about this molecule: CCCCN(C)c1ccc(N=Nc2cc(Cl)ccc2Cl)cc1
104 % of control

How about this molecule: O=c1[nH]cc(Br)cc1[N+](=O)[O-]
101 % of control

How about this molecule: COCNC(=S)N/N=C/c1ccc(O)cn1
95 % of control

How about this molecule: COc1cc(/C=C(\C#N)c2ccc([N+](=O)[O-])cc2)ccc1O
100 % of control

How about this molecule: COc1ccc(NC(=O)Nc2ccccc2OC)c(Cl)c1
94 % of control

How about this molecule: COc1ccc(/C=C(\C#N)C(=O)NCCc2ccc(OC)c(OC)c2)cc1OC
95 % of control

How about this molecule: CCN(CCNC(=O)Nc1ccccc1OC)c1ccccc1
98 % of control

How about this molecule: COc1ccc(NC(=O)Oc2ccc(Cl)cc2C)cc1
91 % of control

How about this molecule: Cc1nccc2cc3c(cc12)Cc1ccccc1-3
88 % of control

###

# Test system: CD2F1 mice, L1210 leukemia ip, survival T/C
# protocolSummary: NCI In Vivo Anticancer Drug Screen. Data for tumor model L1210 Leukemia (intraperitoneal) in CD2F1 (CDF1) mice
# conditionContext: endpoint: mean survival time; dose: 25.0 mg/kg/injection; schedule: Q01DX001 (ip); vehicle: saline with Tween-80; higher = longer survival
Toxic doses and inconclusive results are not listed.
valueKind: T/C

[[record]]
molecule = "O=C(O)CS(=O)(=O)CC(=O)O"
recordedresult = "93 % of control"

[[record]]
molecule = "CC(=O)Nc1c(C)cccc1[N+](=O)[O-]"
recordedresult = "101 % of control"

[[record]]
molecule = "CC(=O)OC1CCC2(C)C(=CCC3C4CC(C=O)=C(Cl)NC4(C)CCC32)C1 (stereo unspecified)"
recordedresult = "98 % of control"

[[record]]
molecule = "S=C1OC(c2ccccc2)(c2ccccc2)c2ccsc21"
recordedresult = "95 % of control"

[[record]]
molecule = "ClCc1ccc(Cl)cc1"
recordedresult = "102 % of control"

[[record]]
molecule = "CCC[As](=O)(O)CC[As](=O)(O)CCC"
recordedresult = "95 % of control"

[[record]]
molecule = "CC(C)(C)/C(=N\\Nc1ccc([N+](=O)[O-])cc1[N+](=O)[O-])c1ccccc1"
recordedresult = "97 % of control"

[[record]]
molecule = "CC1=C(C)C(=O)C(SC2CC(=O)OC2=O)=C(C)C1=O (stereo unspecified)"
recordedresult = "108 % of control"


T/C lookup needed for CC1CCC2(OC1)OC1C(O)C3C4CCC5CC(OC6OC(CO)C(OC7OC(CO)C(O)C(OC8OCC(O)C(O)C8O)C7OC7OC(CO)C(O)C(OC8OC(CO)C(O)C(O)C8O)C7O)C(O)C6O)C(O)CC5(C)C4CCC3(C)C1C2C (stereo unspecified) , thanks.
100 % of control

How about this molecule: CC(=O)/C(=C\c1ccccc1)CNC(C)(C)C
92 % of control

How about this molecule: O=C(OCCC[P+](c1ccccc1)(c1ccccc1)c1ccccc1)c1ccccc1
115 % of control

###

Below is a list of entries, each paired with its recorded T/C value.
# Test system: CD2F1 mice, L1210 leukemia ip, survival T/C
# protocolSummary: NCI In Vivo Anticancer Drug Screen. Data for tumor model L1210 Leukemia (intraperitoneal) in CD2F1 (CDF1) mice
# conditionContext: endpoint: mean survival time; dose: 25.0 mg/kg/injection; schedule: Q01DX009 (ip); vehicle: Klucel (hydroxypropylcellulose) (HPC); higher = longer survival
# Procedure: The antitumor activity of compounds was measured in mice bearing transplantable tumors. Survival or tumor size were measured and the results are expressed as the measurement made in the treated group (T) divided by the measurement made in the vehicle treated control group (C). The tumor model used in this assay is L1210 Leukemia (intraperitoneal) in CD2F1 (CDF1) mice
Toxic doses and inconclusive results are not listed.

Look over these answered cases.
[[record]]
molecule = "C[n+]1ccc(/C=C\\c2ccc(N(CCCl)CCCl)cc2)c2ccccc21"
targetsystem = "CD2F1 mice, L1210 leukemia ip, survival T/C"
valuekind = "T/C"
recordedresult = "112 % of control"

[[record]]
molecule = "c1ccc(-c2nnc(-c3ccccn3)nn2)nc1"
targetsystem = "CD2F1 mice, L1210 leukemia ip, survival T/C"
valuekind = "T/C"
recordedresult = "101 % of control"

[[record]]
molecule = "O=S(=O)(/C=C\\S(=O)(=O)c1ccccc1)c1ccccc1"
targetsystem = "CD2F1 mice, L1210 leukemia ip, survival T/C"
valuekind = "T/C"
recordedresult = "95 % of control"


T/C lookup needed for CC1OC(C)(C)OC1C(=O)O (stereo not drawn) , thanks.
92 % of control
